Overview of recorded EC50 for various binders
# SYSTEM NAME: T1, full-length beta-Catenin (Uniprot ID P35222) (Homo sapiens (Human), UniProt P35222 1-781)
# T1 construct: also called bCat; B-Catenin
# T1 sequence: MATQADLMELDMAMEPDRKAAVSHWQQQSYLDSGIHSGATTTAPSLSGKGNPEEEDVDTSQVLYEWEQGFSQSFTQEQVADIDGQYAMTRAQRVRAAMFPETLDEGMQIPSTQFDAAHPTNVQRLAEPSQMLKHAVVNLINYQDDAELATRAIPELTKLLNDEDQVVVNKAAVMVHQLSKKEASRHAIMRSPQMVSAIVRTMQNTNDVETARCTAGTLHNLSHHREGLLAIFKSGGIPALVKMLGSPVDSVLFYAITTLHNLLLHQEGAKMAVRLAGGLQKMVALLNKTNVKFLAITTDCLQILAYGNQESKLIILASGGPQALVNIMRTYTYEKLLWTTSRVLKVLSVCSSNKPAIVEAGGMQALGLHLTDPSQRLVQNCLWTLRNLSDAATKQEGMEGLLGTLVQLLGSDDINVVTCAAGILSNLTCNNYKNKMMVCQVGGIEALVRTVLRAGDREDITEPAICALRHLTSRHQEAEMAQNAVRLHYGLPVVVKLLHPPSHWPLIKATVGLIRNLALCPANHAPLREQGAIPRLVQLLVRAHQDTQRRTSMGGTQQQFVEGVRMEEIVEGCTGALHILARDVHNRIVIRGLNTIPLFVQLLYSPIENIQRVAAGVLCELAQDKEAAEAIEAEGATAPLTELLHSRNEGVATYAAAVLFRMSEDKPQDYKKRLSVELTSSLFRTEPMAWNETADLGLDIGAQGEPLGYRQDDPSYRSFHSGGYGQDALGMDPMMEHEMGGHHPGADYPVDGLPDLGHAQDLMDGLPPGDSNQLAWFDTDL
# TEST SUMMARY: fluorescence polarization competition; 10 nM full-length beta-catenin, competitor 10 nM 5FAM-TCF4(10-53)
Starred links: 1 amine or outer side, 2 acyl side, 3 side chain; linkers in the order of their positions; H or OH if unused. Positions of bridges follow the written chain, without caps; N, C: chain ends. Non-standard residues stand in square brackets, D forms with d. Primed or numbered codes have the meaning given here. B5(4) = 2,2-bis(4-pentenyl)glycine = 2-amino-2-(pent-4-en-1-yl)hept-6-enoic acid (stitching residue), C=CCCCC(CCCC=C)(N[*:1])C(=O)[*:2]; B5(9) = 2-amino-2-(pent-4-en-1-yl)hept-6-enoic acid (2,2-bis(4-pentenyl)glycine), C=CCCCC(CCCC=C)(N[*:1])C(=O)[*:2]; 23FF = 2,3-difluoro-L-phenylalanine, O=C([C@H](Cc1cccc(F)c1F)N[*:1])[*:2]; Phe(3-CF3) = N[C@@H](Cc1cccc(C(F)(F)F)c1)C(=O)O; Bta = N[C@@H](Cc1csc2ccccc12)C(=O)O; αAllylPro = C=CC[C@@]1(C(=O)O)CCCN1; S8 = C=CCCCCCC[C@](C)(N)C(=O)O
Provide only the numeric value, understood in µM.

Field: example entries. Status: answers known.
BINDER	UNITS LABEL	EC50
Ac-[αAllylPro]DA[B5(9)]DEAAFV[S8][23FF][Bta]Q-NH2 (staple 1-4, 4-11; also: earlier eluting HPLC isomer, E/Z not assigned, Stapled peptide) [I-388]	µM	5
Ac-[αAllylPro]DA[B5(9)]DEAA[23FF]V[S8]F[Bta]Q-NH2 (staple 1-4, 4-11; also: later eluting HPLC isomer, E/Z not assigned, Stapled peptide) [I-391]	µM	1.91
Ac-[αAllylPro]DA[B5(4)]DDAA[Phe(3-CF3)]A[S8]F[Bta]Q-NH2 (staple 1-4, 4-11; not fully specified; printed as Ac-PL3-Asp-Ala-B5-Asp-Asp-Ala-Ala-3F3MeF-Ala-S8-Phe-BztA-Gln-NH2, Stapled peptide) [I-374]	µM	3.01
Ac-[αAllylPro]DA[B5(9)]DDAA[Phe(3-CF3)]Q[S8]F[Bta]Q-NH2 (staple 1-4, 4-11; not fully specified; printed as Ac-PL3-Asp-Ala-B5-Asp-Asp-Ala-Ala-3F3MeF-Gln-S8-Phe-BztA-Gln-NH2, Stapled peptide) [I-379]	µM	1.34
XDAXDNAAFVXFXQ (not fully specified; Ac-PL3-Asp-Ala-B5-Asp-Asn-Ala-Ala-Phe-Val-S8-3FF-BztA-Gln-NH2: N-terminal acetyl, C-terminal amide; non-natural PL3(1), B5(4), S8(11), 3FF(12), BztA(13); staples PL3-B5 and B5-S8, Stapled peptide) [I-382]	µM	2.06

Could you now consider this next binder?
Q. Which EC50 reading was recorded for the binder Ac-[αAllylPro]DA[B5(9)]DDAA[Phe(3-CF3)]Q[S8]F[Bta]Q-NH2 (staple 1-4, 4-11; not fully specified; printed as Ac-PL3-Asp-Ala-B5-Asp-Asp-Ala-Ala-3F3MeF-Gln-S8-Phe-BztA-Gln-NH2, Stapled peptide) [I-380] ?
A. 0.552
